Values compiled from patent US20260174744A1.

Tested on: MRC-5 cells
Assay: Toxicity XTT in MRC-5 (229E cytoprotection assay)
Settings: read-out: CoV229E - TC50; MRC-5; XTT; 6 days

>  <compound>
O=C(O)c1ccc(-c2c(CC3CCCC3)c3ccc(F)cc3n2Cc2ccc(OCCN3CCCCC3)cc2)cc1

>  <measurement target>
MRC-5 cells

>  <CC50>
> 5000 nM

$$$$
>  <compound>
Fc1ccc(-c2cc3sccc3n2Cc2ccc(OCCN3CCCCC3)cc2)cc1

>  <measurement target>
MRC-5 cells

>  <CC50>
1530 nM

$$$$
>  <compound>
Cc1c(-c2ccc(O)cc2)n(Cc2ccc(OCCC3CCCCC3)cc2)c2ccc(O)cc12

>  <measurement target>
MRC-5 cells

>  <CC50>
2700 nM

$$$$
>  <compound>
Cc1c(-c2ccc(O)cc2)n(Cc2ccc(OCCN3CCCCC3)cc2)c2ccc(O)cc12 [Pipendoxifene]

>  <measurement target>
MRC-5 cells

>  <CC50>
> 1000 nM

$$$$
>  <compound>
O=[N+]([O-])c1cccc2nc(-c3ccc(F)cc3)n(Cc3ccc(OCCN4CCCCC4)cc3)c12

>  <measurement target>
MRC-5 cells

>  <CC50>
> 5000 nM

$$$$
>  <compound>
COc1ccc(-c2c(Cc3ccc(OCCC4CCCCC4)cc3)c3ccc(OC)cc3n2C)cc1

>  <measurement target>
MRC-5 cells

>  <CC50>
> 5000 nM

$$$$
>  <compound>
CCC(CC)COC(=O)[C@H](C)N[P@](=O)(OC[C@H]1O[C@@](C#N)(c2ccc3c(N)ncnn23)[C@H](O)[C@@H]1O)Oc1ccccc1 [Remdesivir, reference compound]

>  <measurement target>
MRC-5 cells

>  <CC50>
> 1000 nM

$$$$
>  <compound>
O=[N+]([O-])c1cccc2nc(-c3ccc(F)cc3)n(Cc3ccc(OCCC4CCCCC4)cc3)c12

>  <measurement target>
MRC-5 cells

>  <CC50>
> 5000 nM

$$$$
